Data provenance: patent US20240287163A1

# target or test system: T1, recombinant cynomolgus C1r2s2 tetramer (cynomolgus monkey, limits assumed)
# T1 construct: also called cyC1r2s2; monkey C1r2s2
# T1 chain 1: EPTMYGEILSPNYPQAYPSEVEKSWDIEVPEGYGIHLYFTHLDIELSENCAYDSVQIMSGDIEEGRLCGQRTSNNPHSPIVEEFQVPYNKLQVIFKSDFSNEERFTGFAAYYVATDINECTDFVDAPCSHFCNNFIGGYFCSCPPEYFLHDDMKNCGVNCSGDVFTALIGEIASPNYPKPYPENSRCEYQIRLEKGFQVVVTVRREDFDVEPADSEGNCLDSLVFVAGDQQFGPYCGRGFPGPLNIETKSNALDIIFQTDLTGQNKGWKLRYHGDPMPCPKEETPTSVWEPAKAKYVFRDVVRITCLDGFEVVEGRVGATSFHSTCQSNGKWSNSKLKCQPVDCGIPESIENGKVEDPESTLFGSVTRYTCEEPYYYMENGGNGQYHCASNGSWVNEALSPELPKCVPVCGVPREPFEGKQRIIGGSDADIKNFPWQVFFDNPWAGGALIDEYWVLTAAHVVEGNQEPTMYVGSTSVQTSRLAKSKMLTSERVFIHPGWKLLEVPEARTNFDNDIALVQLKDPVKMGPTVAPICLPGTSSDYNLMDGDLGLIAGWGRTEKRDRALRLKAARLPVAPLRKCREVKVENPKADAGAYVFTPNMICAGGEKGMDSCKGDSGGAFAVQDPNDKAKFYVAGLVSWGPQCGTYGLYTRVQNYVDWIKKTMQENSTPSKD
# T1 chain 2: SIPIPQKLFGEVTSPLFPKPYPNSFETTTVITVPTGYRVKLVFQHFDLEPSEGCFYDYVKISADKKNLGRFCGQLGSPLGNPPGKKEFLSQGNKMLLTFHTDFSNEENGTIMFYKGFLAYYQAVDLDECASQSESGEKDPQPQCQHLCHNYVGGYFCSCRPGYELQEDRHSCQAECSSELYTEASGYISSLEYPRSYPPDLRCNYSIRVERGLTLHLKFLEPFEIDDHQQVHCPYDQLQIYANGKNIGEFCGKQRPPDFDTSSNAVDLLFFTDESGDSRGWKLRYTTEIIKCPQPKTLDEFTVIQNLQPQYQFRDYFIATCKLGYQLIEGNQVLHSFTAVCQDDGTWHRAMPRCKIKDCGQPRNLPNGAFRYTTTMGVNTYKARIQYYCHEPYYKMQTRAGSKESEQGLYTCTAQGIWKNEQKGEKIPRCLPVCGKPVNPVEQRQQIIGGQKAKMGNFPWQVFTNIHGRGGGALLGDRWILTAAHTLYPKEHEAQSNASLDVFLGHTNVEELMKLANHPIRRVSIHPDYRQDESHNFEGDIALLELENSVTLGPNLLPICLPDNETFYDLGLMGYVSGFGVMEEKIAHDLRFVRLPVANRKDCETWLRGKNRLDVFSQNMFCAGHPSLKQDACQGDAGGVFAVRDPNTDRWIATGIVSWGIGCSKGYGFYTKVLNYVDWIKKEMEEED
# method description: SPR (Biacore T200), 37 C; ratio of KD at pH 6.0 to KD at pH 7.4
# Procedure: The binding property of each sample at pH7.4 and pH6.0 was determined at 37° C. using BIACORE® T200 instrument (Cytiva). […] The antibody solution was added thereto at 30 μL/min for 120 seconds, the running buffer was then added at 30 μL/min for 180 seconds, and the dissociation constant (KD) of each antibody for hC1r2s2 and cyC1r2s2 was calculated. […] The KD value was calculated using BIACORE® T200 evaluation software version 2.0 (Cytiva). […]

| binder | KD (pH 6.0)/KD (pH 7.4) |
| --- | --- |
| COS0637pHv21-G1A3FcgSil+LowpI (antibody, V domains shown, VH 24, VL 47, CH 45, CL 23) VH: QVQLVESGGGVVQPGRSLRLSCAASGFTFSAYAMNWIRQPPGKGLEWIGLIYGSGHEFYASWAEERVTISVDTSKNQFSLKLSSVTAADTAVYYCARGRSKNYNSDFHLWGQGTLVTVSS VL: DIQMTQSPSSLSASVGDRVTITCQAHEILHDKKNLAWYQQKPGQPPKLLIYSASILESGVPSRFSGSGSGTDFTLTISSLQPEDFATYYCHGEFSHGSGDLNHFGQGTKVEIKR | 182 |
